These measurements were taken from PubChem BioAssay AID1259407.

- System: CCRIS mutagenicity, Ames/micronucleus/aberration tests
- protocol_details: CCRIS mutagenicity studies
- applied_conditions: Test System: AMES SALMONELLA TYPHIMURIUM; Strain/Indicator: TA100; Metabolic Activation: RAT, LIVER, S-9, AROCLOR 1254; Method: STANDARD PLATE
Active and inactive are the calls of the source. How the calls were made is not given here.
Labels: active, inactive

c1ccc(NNc2ccccc2)cc1    active
O=C(Cn1ccnc1[N+](=O)[O-])NCc1ccccc1    active
Cn1cnc2c(NO)ncnc21    inactive
COc1cc(N=Nc2ccc(N)cc2)c(C)cc1N=Nc1c(S(=O)(=O)O)cc2ccc(N)cc2c1O    active
C[C@@H]1Cc2c(Cl)cc(C(=O)NC(Cc3ccccc3)C(=O)O)c(O)c2C(=O)O1 (stereo partly specified)    inactive
CC(C)=C[C@H]1[C@@H](C(=O)OCc2coc(Cc3ccccc3)c2)C1(C)C    inactive
C[C@]12CC[C@@H]3c4ccc(O)cc4CC[C@H]3[C@@]13CC[C@]2(O)[C@H](O)C3    inactive
O=c1oc2cccc3ccc4c5ccccc5cc1c4c32    active
C[C@]12CC[C@H](O)C[C@@H]1CC[C@@H]1[C@@H]2CC[C@]2(C)NC(=O)CC[C@@H]12    inactive
[Cl][Fe]([Cl])[Cl]    inactive
c1ccc2c(c1)c1cccc3ccc4cccc2c4c31    active
